Measured values drawn from patent US20230310631A1 for this set.

target: human glucagon receptor (human, UniProt P47871 26-477); assay: cell-based or functional assay
Sequence (P47871 26-477): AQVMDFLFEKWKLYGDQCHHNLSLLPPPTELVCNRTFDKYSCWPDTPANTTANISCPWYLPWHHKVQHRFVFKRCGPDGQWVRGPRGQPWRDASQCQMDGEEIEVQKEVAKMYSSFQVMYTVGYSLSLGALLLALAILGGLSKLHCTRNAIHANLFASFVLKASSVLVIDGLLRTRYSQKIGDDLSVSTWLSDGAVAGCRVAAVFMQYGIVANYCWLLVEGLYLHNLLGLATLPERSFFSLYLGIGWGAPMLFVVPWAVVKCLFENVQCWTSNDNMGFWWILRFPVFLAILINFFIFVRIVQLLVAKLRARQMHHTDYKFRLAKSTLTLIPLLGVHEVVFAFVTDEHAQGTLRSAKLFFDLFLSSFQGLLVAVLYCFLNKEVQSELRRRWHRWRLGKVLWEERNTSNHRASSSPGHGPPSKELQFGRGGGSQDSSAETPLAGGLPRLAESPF
Bridge positions count the residues as written; N and C are the ends. Square brackets hold non-standard residues; d marks the D form. Ends that are not written are not given here. Aib = CC(C)(N)C(=O)O
readoutLabel: In vitro Activity (relative activity to SEQ ID NO: 1, %); cAMP assay, from EC50

(A) Y[Aib]QGTFTSDYSKYLCEKRAKEFVQWLMNT (lactam 16-20) [glucagon derivative of SEQ ID NO: 19]
(B) Y[Aib]QGTFTSDYSKYCDEKRAKEFVQWLMNT (lactam 16-20) [glucagon derivative of SEQ ID NO: 23]
(C) Y[Aib]QGTFVSDYSKYLDERRAKDFVQWLMNTC (lactam 16-20) [glucagon derivative of SEQ ID NO: 40]
(D) W[Aib]QGTFTSDYSKYCDERRAKEFVQWLMNT (lactam 16-20) [glucagon derivative of SEQ ID NO: 34]
(E) W[Aib]QGTFTSDYSKYLDECRAKDFVQWLMNT (lactam 16-20) [glucagon derivative of SEQ ID NO: 26]
-- ask Put the items in order so that reported In vitro Activity (relative activity to SEQ ID NO: 1, %); cAMP assay, from EC50 rises from first to last. In your reply, arrange the labels in the requested order.
-- reply D, E, A, C, B
(D: 0.2%, E: 1%, A: 12.1%, C: 40.8%, B: 76.8%)
